# Tested on: UACC-62
# assayDetails: NCI tumour cell line growth inhibition, 48 h
Calls of active or inactive are those of the source. Rule as the data show it: active = GI50 up to about 1.1 µM and inactive = higher.
Outcome codes: active, inactive

[[record]]
compound = "COc1ccc(NC(S)=Nc2ccccc2)cc1"
testtarget = "UACC-62"
group = "inactive"

[[record]]
compound = "CCCCC1CC(c2cccc([N+](=O)[O-])c2)=NO1 (centres undefined)"
testtarget = "UACC-62"
group = "inactive"

[[record]]
compound = "C[C@H](CCC1=NCCN1)[C@H]1CC[C@H]2[C@@H]3CC[C@@H]4C[C@H](O)CC[C@]4(C)[C@H]3CC[C@]12C"
testtarget = "UACC-62"
group = "inactive"

[[record]]
compound = "Cc1ccc(NC(=O)C(=O)C2C(=O)NC(=O)NC2=O)cc1C"
testtarget = "UACC-62"
group = "inactive"

[[record]]
compound = "NC(Cc1nnn[nH]1)C(=O)O (centres undefined)"
testtarget = "UACC-62"
group = "inactive"

[[record]]
compound = "CC1=Nc2nc3ccccc3n2C(C)(C)C1"
testtarget = "UACC-62"
group = "inactive"

[[record]]
compound = "O=C(C(Cl)=C(N1CCCCC1)N1CCCCC1)C(Cl)Cl"
testtarget = "UACC-62"
group = "inactive"

[[record]]
compound = "C=CCCCCn1c2ccccc2c2c(C)c3cnccc3c(C)c21"
testtarget = "UACC-62"
group = "inactive"

[[record]]
compound = "C1OCC2S[C@@H]3COCO[C@@H]3C2O1 (some centres undefined)"
testtarget = "UACC-62"
group = "inactive"

[[record]]
compound = "COC(=O)[C@@H](NC(=O)N(Cc1ccccc1)C[C@H](CC(C)C)NC(=O)[C@@H](NC(=O)OC(C)(C)C)C(C)C)C(C)C"
testtarget = "UACC-62"
group = "inactive"

[[record]]
compound = "COc1ccc(C2CC(c3ccc4ccccc4c3O)=NN2)cc1OC (centres undefined)"
testtarget = "UACC-62"
group = "inactive"

[[record]]
compound = "OCC1NC(COC2OC(CO)C(O)C(O)C2O)C(O)C(O)C1O (centres undefined)"
testtarget = "UACC-62"
group = "inactive"

[[record]]
compound = "CC(C)(C)c1cc(C(C)(C)C)c(SS(=O)(=O)O)c(O)c1O"
testtarget = "UACC-62"
group = "inactive"

[[record]]
compound = "COC(=O)C1C=NNC1C(=O)OC (centres undefined)"
testtarget = "UACC-62"
group = "inactive"

[[record]]
compound = "CS(C)(=O)=N/C=C\\C(=O)C(Cl)(Cl)Cl"
testtarget = "UACC-62"
group = "inactive"

[[record]]
compound = "Cc1cc2cc(Cl)ccc2nc1C(=O)c1ccccc1"
testtarget = "UACC-62"
group = "inactive"

[[record]]
compound = "CCCCOC(=O)NC(Nc1ccc(S(N)(=O)=O)cc1)(C(F)(F)F)C(F)(F)F"
testtarget = "UACC-62"
group = "inactive"

[[record]]
compound = "Cc1cc(S(=O)(=O)Nc2nc(N)n[nH]2)c(Cl)cc1Cl"
testtarget = "UACC-62"
group = "inactive"

[[record]]
compound = "NS(=O)(=O)c1cccc(NC(=S)NC(=O)Nc2ccc(Cl)c(Cl)c2)c1"
testtarget = "UACC-62"
group = "inactive"

[[record]]
compound = "COc1cc(C2c3cc4c(cc3OC(NCCc3ccccc3)C2C)OCO4)cc(OC)c1OC (centres undefined)"
testtarget = "UACC-62"
group = "active"

[[record]]
compound = "C=C(C)C1CC[C@]2(C(=O)O)CCC3(C)[C@H](CCC4[C@@]5(C)CC[C@H](OC6OC(CO)C(O)C6OC6OC(C)C(O)C(O)C6O)[C@@](C)(CO)C5CC[C@]43C)C12 (some centres undefined)"
testtarget = "UACC-62"
group = "inactive"

[[record]]
compound = "C(/C=C/N1CCCC1)=C\\c1nc(N2CCCC2)c2ccccc2n1"
testtarget = "UACC-62"
group = "inactive"

[[record]]
compound = "COc1cc(C2c3cc(OC)c(OC)c(O)c3C(=O)C3CCC(=O)N32)cc(OC)c1OC (centres undefined)"
testtarget = "UACC-62"
group = "inactive"

[[record]]
compound = "O=C1C2c3[nH]c4ccccc4c3[C@@H]3CCCCCCCCCCC3C2C(=O)N1c1ccccc1 (some centres undefined)"
testtarget = "UACC-62"
group = "inactive"

[[record]]
compound = "O=C(c1ccco1)N(C(=S)OCCOc1ccccc1)c1ccccc1"
testtarget = "UACC-62"
group = "inactive"

[[record]]
compound = "N=C(N)NC(=N)Nc1ccc(S(N)(=O)=O)cc1"
testtarget = "UACC-62"
group = "inactive"

[[record]]
compound = "O=C(O)CSc1nnc(COc2ccc(Cl)cc2)n1-c1ccccc1"
testtarget = "UACC-62"
group = "inactive"

[[record]]
compound = "Cc1[nH]nc(-c2ccon2)c1N=O"
testtarget = "UACC-62"
group = "inactive"

[[record]]
compound = "COc1ccc(C2=C3SC=c4ccccc4=C3ON=C2c2ccccc2)cc1"
testtarget = "UACC-62"
group = "inactive"

[[record]]
compound = "COc1ccc(CNc2nc3ccccc3nc2-c2cccs2)cc1"
testtarget = "UACC-62"
group = "inactive"

[[record]]
compound = "O=C1O[C@H](C(Cl)(Cl)Cl)N2CCCC12 (some centres undefined)"
testtarget = "UACC-62"
group = "inactive"

[[record]]
compound = "COc1ccc2[nH]cc(C=C3C(=O)NC(=S)NC3=O)c2c1"
testtarget = "UACC-62"
group = "inactive"

[[record]]
compound = "COc1ccc(C=O)cc1O[Si](C)(C)C(C)(C)C"
testtarget = "UACC-62"
group = "inactive"

[[record]]
compound = "Cc1c2cccc-2c(OCCO)cc2c1[nH]c1ccccc12"
testtarget = "UACC-62"
group = "inactive"

